tested on: IGROV1 ovarian; experiment: NCI tumour cell line growth inhibition, 48 h
I'd be grateful if you could share measured TGI for these entries.

See these solved cases before continuing.
Just so you know, measured TGI for CN(C)CCN=C1Nc2ccccc2C(=O)N2CSCC12 (stereo unspecified) came out at > 100 µM

Just so you know, measured TGI for Nc1ccc(S(=O)(=O)NCCS(=O)(=O)O)cc1 came out at > 100 µM

Just so you know, measured TGI for c1ccc2c(-c3cnn4cc(-c5ccc(N6CCNCC6)cc5)cnc34)ccnc2c1 came out at 2.23 µM

Just so you know, measured TGI for C=CC[C@@]12CCC(=O)C=C1CCCC2=O came out at > 100 µM

Just so you know, measured TGI for N#CSCC1CC(O)(c2ccccc2)CC(c2ccc(Cl)cc2)O1 (stereo unspecified) came out at 7.72 µM

In the following, a different molecule is considered.
Just so you know, measured TGI for CC1NCCc2c1[nH]c1cc(O)ccc21 (stereo unspecified) came out at > 100 µM
